Assay: qHTS for differential inhibitors of proliferation of Plasmodium falciparum line 7G8 (AID 1815);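 also: parasite growth measured after three days of incubation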
Conditions: Plasmodium falciparum 7G8 proliferation inhibition; series mostly up to 28.7 µM
Results filed as inconclusive are left out. Activity calls are given as the source filed them. Calls follow the shape of the dose curve; as a rule, active = well fitted curve in the direction sought with a large enough effect; inconclusive = small, poorly fitted or top-dose-only effect, or another doubt; inactive = no such curve, though single readings can be large or run the other way.
// one of active, inactive, no free text

Ask: Hi, do you know how COc1cc(-c2ccc(=O)[nH]n2)ccc1OC(F)F came out in this test?
Reply: inactive

Ask: Lookup CNCCC=C1c2ccccc2CCc2ccccc21
Reply: active

Ask: Lookup N[C@@H](Cc1cnc[nH]1)C(=O)O
Reply: inactive

Ask: Lookup CNCCC(Oc1ccccc1C)c1ccccc1 (centres undefined)
Reply: active

Ask: Lookup CC(C)COC(=O)OCN1C(=O)CN(CCN2CC(=O)N(COC(=O)OCC(C)C)C(=O)C2)CC1=O
Reply: inactive

Ask: Lookup N[C@H](CO)C(=O)O
Reply: inactive

Ask: Lookup O=C(O)c1cc2cc(Cc3cccnc3)ccc2o1
Reply: inactive

Ask: Lookup COc1cc(NS(C)(=O)=O)ccc1Nc1c2ccccc2nc2ccccc12
Reply: active

Ask: Lookup CCCn1c(=O)[nH]c(=O)c2[nH]cnc21
Reply: inactive

Ask: Lookup O=C1CCC(c2ccc(-n3ccnc3)cc2)=NN1
Reply: inactive

Ask: Lookup Oc1ccc(O)cc1
Reply: active

Ask: Lookup CC(CCc1ccccc1)NCC(O)c1ccc(O)c(C(N)=O)c1 (centres undefined)
Reply: active

Ask: Lookup C1CCc2nnnn2CC1
Reply: inactive

Ask: Lookup CC1(C)CCC(NC(=O)[C@@H](N)CCC(=O)O)CC1
Reply: inactive
